# IC50 annotations
target.desc: G protein-activated inward rectifier potassium channel 4 (Homo sapiens)
Sequence (P48544 whole entry): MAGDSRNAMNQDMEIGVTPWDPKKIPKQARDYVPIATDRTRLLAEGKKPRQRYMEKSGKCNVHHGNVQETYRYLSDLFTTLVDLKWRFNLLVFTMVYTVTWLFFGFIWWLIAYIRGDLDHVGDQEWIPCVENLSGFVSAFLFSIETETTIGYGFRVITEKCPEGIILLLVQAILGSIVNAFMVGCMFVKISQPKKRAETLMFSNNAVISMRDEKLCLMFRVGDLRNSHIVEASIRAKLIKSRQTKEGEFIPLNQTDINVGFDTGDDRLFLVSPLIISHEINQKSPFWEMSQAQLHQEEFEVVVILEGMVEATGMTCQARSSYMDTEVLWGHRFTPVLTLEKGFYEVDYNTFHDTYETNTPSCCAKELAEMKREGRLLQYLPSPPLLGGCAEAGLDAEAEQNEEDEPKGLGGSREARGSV
experiment.description: Inhibition of GIRK1/4 (unknown origin)
Provide a numeric answer, followed by its unit.

Check out these entries, answers already filled in.
> print(dat)
                               input.smiles  readout.type  result
1  O=C(Nc1ccc(F)c(F)c1)Nc1cc(C2CCC2)nn1-c1ccccc1          IC50   30 µM
2  O=C(Nc1ccc(F)c(F)c1)Nc1cc(C(F)(F)F)nn1-c1ccccc1          IC50   30 µM

Next, consider the following compound.
Problem: Provide IC50 value for the following compound: O=C(Nc1ccc(F)c(F)c1)Nc1cc(-c2ccccc2)nn1-c1ccccc1
Solution: 30 µM
